- measurement_target: CK1d (Homo sapiens, UniProt P48730)
- Sequence (P48730 whole entry): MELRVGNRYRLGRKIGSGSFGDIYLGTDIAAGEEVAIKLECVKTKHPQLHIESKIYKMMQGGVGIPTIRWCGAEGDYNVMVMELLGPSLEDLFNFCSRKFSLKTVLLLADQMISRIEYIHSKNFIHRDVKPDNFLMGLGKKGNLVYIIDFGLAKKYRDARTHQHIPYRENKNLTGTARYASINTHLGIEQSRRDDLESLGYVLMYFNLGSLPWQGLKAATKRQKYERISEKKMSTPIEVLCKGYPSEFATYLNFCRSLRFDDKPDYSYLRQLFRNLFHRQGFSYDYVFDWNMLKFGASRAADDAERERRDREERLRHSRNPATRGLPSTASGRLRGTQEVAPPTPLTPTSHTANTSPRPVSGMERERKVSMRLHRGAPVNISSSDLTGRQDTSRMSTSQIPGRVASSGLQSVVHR
- test_details: binding to immobilized V16742 (IVA1/IVA2, HeLa lysate, MS)
- condition_summary: read-out: Kd Avg
quantity: pKd
One number for each entry, as −log10 of the molar value.

Dear colleague, I am looking for the recorded pKd of the following molecule: CC(C)n1c(=O)ccc2cnc(Nc3ccc(OCCN)cc3)nc21
5.21

* * *

- measurement_target: MAP2K6 (IPI00003814) (Homo sapiens)
- Construct: endogenous in cells
- Sequence (P52564 whole entry): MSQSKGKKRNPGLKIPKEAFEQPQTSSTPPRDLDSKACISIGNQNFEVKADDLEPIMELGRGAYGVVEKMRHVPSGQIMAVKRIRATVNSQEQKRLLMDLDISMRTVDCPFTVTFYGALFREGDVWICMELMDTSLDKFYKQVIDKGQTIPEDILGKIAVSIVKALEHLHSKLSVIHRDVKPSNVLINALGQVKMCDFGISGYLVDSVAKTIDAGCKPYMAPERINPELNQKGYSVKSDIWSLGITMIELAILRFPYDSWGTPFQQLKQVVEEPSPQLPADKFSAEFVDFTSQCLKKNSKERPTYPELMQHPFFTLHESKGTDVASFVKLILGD
- test_details: binding to VI16742 beads (HeLa lysate, SILAC MS)
- condition_summary: immobilized VI16742
- Description: In an alternative implementation of the chemical proteomic approach according to the invention, the broadly-selective pyrido[2,3-d]pyrimidine-based kinase inhibitor VI16742 has been used for affinity capture (FIG. 10a). […] As shown by gene ontology analysis, the corresponding molecular functions were highly over-represented in proteins specifically retained by the inhibitor resin (FIG. 10b).
quantity: Ki (µM)
Give bare numbers, in µM.

Dear colleague, I am looking for the recorded Ki of the following molecule: CC(C)n1c(=O)ccc2cnc(Nc3ccc(OCCN)cc3)nc21
178

* * *

- measurement_target: CaMK2g (CAMK2G) (Homo sapiens)
- Sequence (Q13555 whole entry): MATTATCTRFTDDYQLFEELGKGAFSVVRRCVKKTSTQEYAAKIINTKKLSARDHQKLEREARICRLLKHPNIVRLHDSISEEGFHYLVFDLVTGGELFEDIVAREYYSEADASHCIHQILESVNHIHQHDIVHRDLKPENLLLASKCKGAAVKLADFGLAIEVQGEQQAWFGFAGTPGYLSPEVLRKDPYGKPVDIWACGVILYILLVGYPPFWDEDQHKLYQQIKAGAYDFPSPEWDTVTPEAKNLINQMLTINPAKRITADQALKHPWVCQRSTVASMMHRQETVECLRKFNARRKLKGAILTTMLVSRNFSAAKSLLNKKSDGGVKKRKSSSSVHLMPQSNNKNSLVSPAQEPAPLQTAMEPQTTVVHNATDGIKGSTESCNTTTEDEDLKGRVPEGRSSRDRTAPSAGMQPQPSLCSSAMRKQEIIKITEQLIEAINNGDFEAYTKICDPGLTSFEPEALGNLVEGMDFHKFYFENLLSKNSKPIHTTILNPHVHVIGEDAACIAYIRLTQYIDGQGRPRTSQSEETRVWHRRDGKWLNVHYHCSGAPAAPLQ
- test_details: binding to AX14596 beads (HeLa lysate, SILAC MS)
quantity: Ki (µM)
One number for each entry, in µM.

Dear colleague, I am looking for the recorded Ki of the following compound: COc1cc2ncnc(Nc3ccc(F)c(Cl)c3)c2cc1OCCCN [AX14596]
93.4

* * *

- measurement_target: 2-PDE (IPI00174390) (Homo sapiens, UniProt Q6L8Q7)
- Construct: endogenous in cells
- Sequence (Q6L8Q7 43-609): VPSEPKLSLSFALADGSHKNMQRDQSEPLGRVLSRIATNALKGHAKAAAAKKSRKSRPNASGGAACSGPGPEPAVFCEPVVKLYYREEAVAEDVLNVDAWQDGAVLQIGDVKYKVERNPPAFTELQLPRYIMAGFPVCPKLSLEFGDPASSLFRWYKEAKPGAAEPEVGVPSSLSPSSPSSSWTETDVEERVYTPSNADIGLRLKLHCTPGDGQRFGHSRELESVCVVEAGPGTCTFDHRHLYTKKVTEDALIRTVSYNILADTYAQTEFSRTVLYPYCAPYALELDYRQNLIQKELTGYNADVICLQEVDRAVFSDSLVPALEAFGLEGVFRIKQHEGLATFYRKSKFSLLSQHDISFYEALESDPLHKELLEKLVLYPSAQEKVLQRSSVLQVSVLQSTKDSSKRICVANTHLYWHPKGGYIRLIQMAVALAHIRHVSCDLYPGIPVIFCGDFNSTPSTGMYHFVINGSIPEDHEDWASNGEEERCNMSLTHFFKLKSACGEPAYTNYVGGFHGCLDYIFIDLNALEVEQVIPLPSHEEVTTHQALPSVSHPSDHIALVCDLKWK
- test_details: binding to VI16742 beads (HeLa lysate, SILAC MS)
- condition_summary: immobilized VI16742
quantity: Ki (µM)
One number for each entry, in µM.

Dear colleague, I am looking for the recorded Ki of the following compound: CC(C)n1c(=O)ccc2cnc(Nc3ccc(OCCN)cc3)nc21 [V16742]
100

* * *

- measurement_target: CaMKK1 (Homo sapiens, UniProt Q8N5S9)
- Construct: endogenous in cells; host or cells: HeLa S3
- Sequence (Q8N5S9 whole entry): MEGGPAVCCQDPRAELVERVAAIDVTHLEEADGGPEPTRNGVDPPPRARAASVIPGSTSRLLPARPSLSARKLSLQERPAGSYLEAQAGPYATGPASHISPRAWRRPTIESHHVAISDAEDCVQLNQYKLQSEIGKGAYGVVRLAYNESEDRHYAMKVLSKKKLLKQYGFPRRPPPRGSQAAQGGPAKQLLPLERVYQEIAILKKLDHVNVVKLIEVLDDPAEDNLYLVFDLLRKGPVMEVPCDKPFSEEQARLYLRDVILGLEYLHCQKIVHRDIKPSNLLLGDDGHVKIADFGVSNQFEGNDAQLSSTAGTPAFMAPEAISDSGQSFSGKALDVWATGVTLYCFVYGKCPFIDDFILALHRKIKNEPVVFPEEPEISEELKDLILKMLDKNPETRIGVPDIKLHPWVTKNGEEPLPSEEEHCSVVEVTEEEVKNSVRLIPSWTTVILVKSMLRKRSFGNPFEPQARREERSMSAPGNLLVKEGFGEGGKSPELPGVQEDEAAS
- test_details: binding to immobilized V16742 (IVA1/IVA2, HeLa lysate, MS)
- condition_summary: Experiment 2, read-out: Kd
quantity: pKd
Give bare numbers, as −log10 of the molar value.

Dear colleague, I am looking for the recorded pKd of the following compound: CC(C)n1c(=O)ccc2cnc(Nc3ccc(OCCN)cc3)nc21
4.19
